# method-summary: Clearance in C57BL/6 mouse at 10 mg/kg, ip by LC-MS/MS analysis
# Type: ADME, organism-based
# measurement-setup: in vivo
measured-endpoint: CL/F (mL/min/kg)

# molecular-string, measured-endpoint, result-number
measured = [
    ("CCCS(=O)(=O)Nc1cc(-c2cc(-c3ccc(N4CCNCC4)cc3)cnc2N)cc(F)c1OC", "CL/F", 59.7),
]

###

# target-entity: Receptor-interacting serine/threonine-protein kinase 2 (Homo sapiens)
# Sequence (O43353 whole entry): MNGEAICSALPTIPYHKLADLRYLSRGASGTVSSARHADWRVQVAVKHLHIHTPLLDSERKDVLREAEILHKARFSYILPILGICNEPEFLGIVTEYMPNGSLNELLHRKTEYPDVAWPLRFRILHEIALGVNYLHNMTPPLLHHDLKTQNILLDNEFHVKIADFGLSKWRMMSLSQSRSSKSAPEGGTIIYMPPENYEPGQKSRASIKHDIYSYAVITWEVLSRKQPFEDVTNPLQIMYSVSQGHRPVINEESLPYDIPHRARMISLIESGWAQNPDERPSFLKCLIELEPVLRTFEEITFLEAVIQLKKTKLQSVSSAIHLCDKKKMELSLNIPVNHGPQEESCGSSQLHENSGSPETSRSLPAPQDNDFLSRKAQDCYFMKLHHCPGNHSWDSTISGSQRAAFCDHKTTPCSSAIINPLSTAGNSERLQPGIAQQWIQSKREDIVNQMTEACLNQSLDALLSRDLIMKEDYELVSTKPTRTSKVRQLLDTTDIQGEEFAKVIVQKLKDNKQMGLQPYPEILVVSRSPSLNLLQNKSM
# method-summary: Inhibition of recombinant human RIPK2 incubated for 2 hr by ADP-Glo assay
Entries and their IC50

# molecular-string, target-entity, IC50, nM
data = [
    ("CCCS(=O)(=O)Nc1cc(-c2cc(-c3cccc(S(C)(=O)=O)c3)cnc2N)ccc1OC", "Receptor-interacting serine/threonine-protein kinase 2 (Homo sapiens)", 103),
    ("CCCS(=O)(=O)Nc1cc(-c2cc(-c3ccc(N4CCNCC4)cc3)cnc2N)cc(F)c1OC", "Receptor-interacting serine/threonine-protein kinase 2 (Homo sapiens)", 16),
    ("CCCS(=O)(=O)N1CCOc2ccc(-c3cc(-c4ccc(N5CCNCC5)cc4)cnc3N)cc21", "Receptor-interacting serine/threonine-protein kinase 2 (Homo sapiens)", 78),
    ("COc1cc(NS(C)(=O)=O)cc(-c2cc(-c3ccc(N4CCNCC4)cc3)cnc2C)c1", "Receptor-interacting serine/threonine-protein kinase 2 (Homo sapiens)", 296),
    ("CCOc1cc(NS(=O)(=O)C(C)C)cc(-c2cc(-c3ccc(N4CCNCC4)cc3)cnc2N)c1", "Receptor-interacting serine/threonine-protein kinase 2 (Homo sapiens)", 21),
]
